Cited source for all entries: PubChem BioAssay AID2060497

# Tested on: 317291-083-R-J1-PDC complex spheroids, viability;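 note: spheroids exposed to compounds for one week before readout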
# assay-notes: Anticancer human tumor 317291-083-R-J1-PDC patient-derived soft tissue sarcoma cell line growth inhibition [GQUAD]
# test-parameters: curve of first compound; second compound 10 µM
# Excerpt: DNA G-quadruplex Stabilizer Agents in Combinations in Complex Spheroids A high-throughput screen of multi-cell type tumor spheroids was designed to identify active combinations of DNA G-quadruplex stabilizer agents and targeted small molecules. […] Compounds. […] If the clinical Cmax for an agent had not been determined, the highest concentration tested was 10 microM. […]
pIC50: −log10 of the molar value.
endpoint: pIC50

INSERT INTO assay_data (molecule, reported_measurement) VALUES
  ('COc1cccc2c1C(=O)c1c(O)c3c(c(O)c1C2=O)CC(O)(C(=O)CO)CC3OC1CC(N)C(O)C(C)O1 (stereo unspecified) + Cc1[nH]c2ccc(F)cc2c1-c1nc2c3cccnc3c3ncccc3c2[nH]1', 7.19),
  ('CC1COCCN1c1cc(C2(S(C)(=N)=O)CC2)nc(-c2ccnc3[nH]ccc23)n1 (stereo unspecified) + CN(C)c1ccc(Nc2c3ccc(NC(=O)CCN4CCCC4)cc3nc3cc(NC(=O)CCN4CCCC4)ccc23)cc1', '> 7.50'),
  ('CCc1c2c(nc3ccc(O)cc13)-c1cc3c(c(=O)n1C2)COC(=O)[C@]3(O)CC + Cc1[nH]c2ccc(F)cc2c1-c1nc2c3cccnc3c3ncccc3c2[nH]1', '> 9.00'),
  ('O=C(c1cc(Cc2n[nH]c(=O)c3ccccc23)ccc1F)N1CCN(C(=O)C2CC2)CC1 + Cc1cnc(CNC(=O)c2c(=O)c3ccc(N4CCCN(C)CC4)nc3n3c2sc2ccccc23)cn1', '> 7.50'),
  ('COc1cccc2c1C(=O)c1c(O)c3c(c(O)c1C2=O)CC(O)(C(=O)CO)CC3OC1CC(N)C(O)C(C)O1 (stereo unspecified) + CN(C)c1ccc(Nc2c3ccc(NC(=O)CCN4CCCC4)cc3nc3cc(NC(=O)CCN4CCCC4)ccc23)cc1', '> 7.50'),
  ('Cc1cccc(N(C)C(=O)C2C(O)CCN2c2nc(C)cc(C(F)(F)F)c2C#N)c1 (stereo unspecified) + Cc1cnc(CNC(=O)c2c(=O)c3ccc(N4CCCN(C)CC4)nc3n3c2sc2ccccc23)cn1', '> 7.50'),
  ('COc1ncnc(C2CC2)c1-c1ncc2cnn(Cc3ccc(-c4nc(C(F)(F)F)cn4C(C)C)cc3)c2n1 + Cc1cnc(CNC(=O)c2c(=O)c3ccc(N4CCCN(C)CC4)nc3n3c2sc2ccccc23)cn1', '> 7.50'),
  ('Nc1ccn(C2OC(CO)C(O)C2(F)F)c(=O)n1 (stereo unspecified) + CN(C)c1ccc(Nc2c3ccc(NC(=O)CCN4CCCC4)cc3nc3cc(NC(=O)CCN4CCCC4)ccc23)cc1', '> 7.50'),
  ('CC1COCCN1c1cc(C2(S(C)(=N)=O)CC2)nc(-c2ccnc3[nH]ccc23)n1 (stereo unspecified) + Cc1[nH]c2ccc(F)cc2c1-c1nc2c3cccnc3c3ncccc3c2[nH]1', 6.21),
  ('C=CC(=O)N1CCN(c2nc(=O)n(-c3c(C)ccnc3C(C)C)c3nc(-c4c(O)cccc4F)c(F)cc23)C(C)C1 (stereo unspecified) + Cc1[nH]c2ccc(F)cc2c1-c1nc2c3cccnc3c3ncccc3c2[nH]1', 5.23),
  ('CCc1c2c(nc3ccc(O)cc13)-c1cc3c(c(=O)n1C2)COC(=O)[C@]3(O)CC + Cc1cnc(CNC(=O)c2c(=O)c3ccc(N4CCCN(C)CC4)nc3n3c2sc2ccccc23)cn1', '> 9.00');
